In this section, each of the compounds is paired with its reported normalized growth.
experiment: chemical genetic growth profiling, strain panel (AID 1159580);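 also: tested at 20 µM; growth read once vehicle control cultures reached saturation at 30 °C; 1 = growth at the plate median or of vehicle wells; lower values mean less growth of the strain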; settings: S. cerevisiae deletion strains, growth OD, locus YBR231C, strain swc5, stronger effect = lower value
Screen size: about 5,500 compounds; about 2,000 (36%) were called active. Not shown: some 18% with an inconclusive outcome. The list shows a part of the results.
Write the number on its own, no unit after it.

compound=C=C(C)[C@H]1Cc2c(ccc3c2O[C@@H]2COc4cc(OC)c(OC)cc4[C@@H]2C3=O)O1 measured_metric="normalized growth" result=1
compound=O=C(O)[C@H](O)[C@@](O)(Cc1ccc(O)cc1)C(=O)O measured_metric="normalized growth" result=1.01
compound="CC(=O)CC1CCCCN1 (stereo not drawn)" measured_metric="normalized growth" result=1.01
compound="COC(=O)C[C@H]1C(C)(C)[C@@H](O)[C@@H]2CC3=C4C=C(OC)O[C@@H](c5ccoc5)[C@]4(C)CCC3[C@@]1(C)C2=O (stereo partly drawn)" measured_metric="normalized growth" result=1
compound=COc1cc(O)cc(OC)c1OC measured_metric="normalized growth" result=0.992

Entry CC(=O)Oc1ccccc1C(=O)O has what normalized growth?
1.01

// next record CC1=CC2C(C(C)C)CCC(C)(O)C2CC1 (stereo not drawn)
1.02

Moving on to COc1ccc([C@H]2COc3c(ccc(O)c3OC)C2)c(OC)c1O
0.988

Now try CCOc1ccc(NC(C)=O)cc1 .
1.02

CCOc1ccc(C(=O)c2cc(O)c(OC)c(OC)c2O)cc1 ?
0.987

Another: CCNc1nc(Cl)nc(NCC)n1
0.993

Next compound up: COc1cc(/C=C/C(=O)N2CCC=CC2=O)cc(OC)c1OC
1.01

For Cc1cc(=O)n(-c2ccccc2)n1C then?
1.01
